Biological target: KRas wild type (Homo sapiens (Human))
Sequence (P01116 other isoform, or with tags, fused parts or gaps): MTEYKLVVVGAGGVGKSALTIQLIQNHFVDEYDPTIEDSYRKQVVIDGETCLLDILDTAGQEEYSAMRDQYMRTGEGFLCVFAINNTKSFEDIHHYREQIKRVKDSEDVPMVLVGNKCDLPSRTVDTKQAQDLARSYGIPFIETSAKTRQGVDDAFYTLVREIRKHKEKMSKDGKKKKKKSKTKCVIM
Assay: Ras GTP Binding Domain Inhibition Assay, KRas wild type
Settings: without SOS, read-out: KRas wild type: % inh.
Could you please report measured inhibition at 20 µM for the items listed next?

Return inhibition at 20 µM (reported value) for this compound: COc1cc(Nc2nc(-c3nccn3C)nc3sc(-c4ccn(C(C)C)n4)c(C)c23)ncn1 [Compound 19] 76 to 100%

Return inhibition at 20 µM (reported value) for this compound: COCCNc1nc(-c2nccn2C)nc2sc(-c3ccccc3)c(-c3ccccc3Cl)c12 [Compound 4] 1 to 25%

Return inhibition at 20 µM (reported value) for this compound: CO[C@H]1CNC[C@@H](Nc2nc(-c3nccn3C)nc3sc(-c4ccn(C(C)C)n4)cc23)C1 [Compound 28] 76 to 100%

Return inhibition at 20 µM (reported value) for this compound: COCCNc1nc(-c2nccn2C)nc2sc(-c3ccccc3)c(-c3ccccc3)c12 [Compound 1] 1 to 25%

Return inhibition at 20 µM (reported value) for this compound: Cc1c(-c2ccn(C(C)C)n2)sc2nc(-c3nccn3C)nc(NCC3CN(C)CCO3)c12 (racemic) [Compound 25] 76 to 100%

Return inhibition at 20 µM (reported value) for this compound: COCCN(C)c1nc(-c2nccn2C)nc2sc(-c3ccccc3)c(-c3ccccc3)c12 [Compound 2] 46 to 75%

Return inhibition at 20 µM (reported value) for this compound: COCCn1ccnc1-c1nc(N[C@H]2C[C@@H](OC)C2)c2c(-c3ccccc3)c(-c3ccn(C)n3)sc2n1 [Compound 13] 76 to 100%

Return inhibition at 20 µM (reported value) for this compound: COCCn1ccc(-c2sc3nc(-c4nccn4C)nc(N[C@@H]4CC[C@H](OC)C4)c3c2C)n1 (racemic) [Compound 39] 76 to 100%

Return inhibition at 20 µM (reported value) for this compound: COCCOc1nc(-c2nccn2C)nc2sc(-c3ccn(C(C)C)n3)c(C)c12 [Compound 30] 1 to 25%

Return inhibition at 20 µM (reported value) for this compound: COc1cccc(-c2sc3nc(-c4nccn4C)nc(NC4CCC(OC)C4)c3c2C)c1F (racemic) [Compound 10] 46 to 75%

Return inhibition at 20 µM (reported value) for this compound: COCCCCOc1nc(-c2nccn2C)nc2sc(-c3ccn(C(C)C)n3)c(C)c12 [Compound 34] 1 to 25%

Return inhibition at 20 µM (reported value) for this compound: COCC1(OC)CCN(c2nc(-c3nccn3C)nc3sc(-c4ccn(C(C)C)n4)c(C)c23)C1 (racemic) [Compound 27] 76 to 100%

Return inhibition at 20 µM (reported value) for this compound: Cc1c(-c2ccn(C(C)C)n2)sc2nc(-c3nccn3C)nc(NCCN3CCS(=O)(=O)CC3)c12 [Compound 23] 76 to 100%

Return inhibition at 20 µM (reported value) for this compound: COCCO[C@H]1CC[C@@H](Nc2nc(-c3nccn3C)nc3sc(-c4ccn(C(C)C)n4)c(C)c23)C1 (racemic) [Compound 20] 76 to 100%

Return inhibition at 20 µM (reported value) for this compound: Cc1c(-c2ccn(C(C)C)n2)sc2nc(-c3nccn3C)nc(NCC3COCCN3C)c12 (racemic) [Compound 24] 26 to 45%

Return inhibition at 20 µM (reported value) for this compound: COC1CCN(c2nc(-c3nccn3C)nc3sc(-c4ccn(C)n4)c(-c4ccccc4)c23)CC1 [Compound 6] 0%

Return inhibition at 20 µM (reported value) for this compound: COc1cc(-c2sc3nc(-c4nccn4C)nc(N[C@@H]4CC[C@@H](OC)C4)c3c2-c2ccccc2)ccn1 (racemic) [Compound 47] 76 to 100%

Return inhibition at 20 µM (reported value) for this compound: COCCNc1nc(-c2cn(C)cn2)nc2sc(-c3cccc(OC)c3Cl)c(-c3ccc(OC)cc3)c12 [Compound 8] 46 to 75%

Return inhibition at 20 µM (reported value) for this compound: CO[C@H]1CC[C@@H](Nc2nc(-c3nccn3C)nc3sc(-c4ccn(C)n4)c(-c4ccccc4)c23)C1 (racemic) [Compound 5] 26 to 45%

Return inhibition at 20 µM (reported value) for this compound: COCCCNc1nc(-c2nccn2C)nc2sc(-c3ccccc3)c(-c3ccccc3)c12 [Compound 3] 46 to 75%

Return inhibition at 20 µM (reported value) for this compound: COc1cccc(Nc2nc(-c3nccn3C)nc3sc(-c4ccn(C(C)C)n4)c(C)c23)c1 [Compound 17] 26 to 45%

Return inhibition at 20 µM (reported value) for this compound: CO[C@@H]1CC[C@H](Nc2nc(-c3nccn3C)nc3sc(-c4ccn(C(C)C)n4)c(-c4ccccc4)c23)C1 (single isomer, unassigned) [Compound 11] 46 to 75%

Return inhibition at 20 µM (reported value) for this compound: COc1cc(Cn2c(-c3nccn3C)nc3sc(-c4ccn(C(C)C)n4)c(C)c3c2=O)ncn1 [Compound 35] 1 to 25%

Return inhibition at 20 µM (reported value) for this compound: COCCCCn1c(-c2nccn2C)nc2sc(-c3ccn(C(C)C)n3)c(C)c2c1=O [Compound 33] 0%

Return inhibition at 20 µM (reported value) for this compound: CO[C@H]1C[C@H](CNc2nc(-c3nccn3C)nc3sc(-c4ccn(C(C)C)n4)c(C)c23)C1 [Compound 16] 76 to 100%

Return inhibition at 20 µM (reported value) for this compound: Cc1c(-c2ccn(C(C)C)n2)sc2nc(-c3nccn3C)nc(NCCN3CCOCC3)c12 [Compound 22] 76 to 100%

Return inhibition at 20 µM (reported value) for this compound: COCCn1c(-c2nccn2C)nc2sc(-c3ccn(C(C)C)n3)c(C)c2c1=O [Compound 29] 76 to 100%

Return inhibition at 20 µM (reported value) for this compound: COc1cccc(-c2sc3nc(-c4nccn4C)nc(N[C@@H]4CC[C@@H](OC)C4)c3c2C)c1F (racemic) [Compound 43] 26 to 45%

Return inhibition at 20 µM (reported value) for this compound: COCC1CN(c2nc(-c3nccn3C)nc3sc(-c4ccn(C(C)C)n4)c(C)c23)CCO1 (racemic) [Compound 15] 76 to 100%

Return inhibition at 20 µM (reported value) for this compound: COCCNc1nc(-c2nccn2C)nc2sc(-c3cccc(OC)c3Cl)c(-c3ccc(OC)cc3)c12 [Compound 7] 46 to 75%
